Origin of measurements: the supplement of paper PMC11061612

# Test system: CL-11 (Colorectal Carcinoma)
# assayMethodText: combination Emax (second highest fraction inhibited in the dose matrix, 72 h); higher = more inhibition; extreme values may be limits of the assay
quantityName: combination Emax
Please respond with just the number, no unit label.

Identify measured combination Emax corresponding to COc1cccc(OCCCN)c1-c1cc(Nc2cnc(C#N)cn2)n[nH]1 [Prexasertib] + Cc1cc2ncnn2cc1Nc1ncc2c(n1)n(C1CCOCC1)c(=O)n2C [AZD7648] (first compound max 1 µM, 7x7, partner max 10 µM)
0.788

Identify measured combination Emax corresponding to COc1cccc(OCCCN)c1-c1cc(Nc2cnc(C#N)cn2)n[nH]1 [Prexasertib] + C[C@@H]1COCCN1C2=NC(=NC(=C2)C3(CC3)[S@](=N)(=O)C)C4=C5C=CNC5=NC=C4 [AZD6738] (first compound max 1 µM, 7x7, partner max 10 µM)
0.764

Identify measured combination Emax corresponding to CCc1c2c(nc3ccc(O)cc13)-c1cc3c(c(=O)n1C2)COC(=O)[C@]3(O)CC [SN-38] + O=C(c1cc(Cc2n[nH]c(=O)c3ccccc23)ccc1F)N1CCN(C(=O)C2CC2)CC1 [Olaparib] (first compound max 0.3 µM, 7x7, partner max 10 µM)
0.776

Identify measured combination Emax corresponding to CCN(CCO)CCCOc1ccc2c(Nc3cc(CC(=O)Nc4cccc(F)c4)[nH]n3)ncnc2c1 [AZD2811] + O=C(c1cc(Cc2n[nH]c(=O)c3ccccc23)ccc1F)N1CCN(C(=O)C2CC2)CC1 [Olaparib] (first compound max 1 µM, 7x7, partner max 10 µM)
0.202
